biological target: CSF1R (Homo sapiens); experiment: KINOMEscan competition binding assay for CSF1R; parameters: DNA tag for qPCR (not a peptide); host or cells: E. coli/T7 phage or HEK-293; details: @ 0.1 uM; read-out: CSF1R kinase binding activity, Percent (%) inhibition
Metric: inhibition at 0.1 µM (%)

• COc1cc2nccc(Oc3ccc(NC(=O)c4nn(C5CCOC5)cc4OCC(F)(F)F)cc3C)c2cc1OC (stereo not drawn) [Compound 85] = 78
• COCCn1cc(OCC(F)(F)F)c(C(=O)Nc2ccc(Oc3ccnc4cc(OC)c(OC)cc34)c(C)c2)n1 [Compound 84] = 97

P: COc1cc2nccc(Oc3ccc(NC(=O)c4nn(CC(C)O)cc4OCC(F)(F)F)nc3)c2cc1OC (stereo not drawn) [Compound 17]
Q: COc1cc2nccc(Oc3ccc(NC(=O)c4nn(CCO)cc4OCC(F)(F)F)cn3)c2cc1OC [Compound 129]
R: COc1cc2nccc(Oc3ccc(NC(=O)c4nn(CC5COC5)cc4OCC(F)(F)F)cc3)c2cc1OC [Compound 101]
Q: Rank items: key inhibition at 0.1 µM, increasing. Field: ranking. Enter the labels in the order requested.
Result: Q, R, P

I: COc1cc2nccc(Oc3ccc(NC(=O)c4nn(C5CCOCC5)cc4OCC(F)(F)F)nc3)c2cc1OC [Compound 90]
II: COc1cc2nccc(Oc3ccc(NC(=O)c4nn(CCN)cc4OCC(F)(F)F)cc3)c2cc1OC [Compound 88]
Q: # return whichever of I and II has the smaller inhibition at 0.1 µM Field: selected label. Fill in the label of the entry you choose.
Result: II
(II: 21%, I: 95%)

A: COc1cc2nccc(Oc3ccc(NC(=O)c4nn(CCN(C)C)cc4OCC(F)(F)F)nc3)c2cc1OC [Compound 9]
B: CCCn1cc(OCC(F)(F)F)c(C(=O)Nc2ccc(Oc3ccnc4cc(OC)c(OC)cc34)nc2)n1 [Compound 139]
Q: I'm curious, which of these has a smaller inhibition at 0.1 µM number: A or B ? Write down the label attached to your selection.
Result: B

----------
biological target: CSF1R (Homo sapiens, UniProt P07333); assay: KINOMEscan competition binding assay for CSF1R; design: DNA tag for qPCR (not a peptide); host or cells: E. coli/T7 phage or HEK-293; conditions: @ 0.1 uM; read-out: CSF1R kinase binding activity, Percent (%) inhibition
Sequence (P07333 20-972): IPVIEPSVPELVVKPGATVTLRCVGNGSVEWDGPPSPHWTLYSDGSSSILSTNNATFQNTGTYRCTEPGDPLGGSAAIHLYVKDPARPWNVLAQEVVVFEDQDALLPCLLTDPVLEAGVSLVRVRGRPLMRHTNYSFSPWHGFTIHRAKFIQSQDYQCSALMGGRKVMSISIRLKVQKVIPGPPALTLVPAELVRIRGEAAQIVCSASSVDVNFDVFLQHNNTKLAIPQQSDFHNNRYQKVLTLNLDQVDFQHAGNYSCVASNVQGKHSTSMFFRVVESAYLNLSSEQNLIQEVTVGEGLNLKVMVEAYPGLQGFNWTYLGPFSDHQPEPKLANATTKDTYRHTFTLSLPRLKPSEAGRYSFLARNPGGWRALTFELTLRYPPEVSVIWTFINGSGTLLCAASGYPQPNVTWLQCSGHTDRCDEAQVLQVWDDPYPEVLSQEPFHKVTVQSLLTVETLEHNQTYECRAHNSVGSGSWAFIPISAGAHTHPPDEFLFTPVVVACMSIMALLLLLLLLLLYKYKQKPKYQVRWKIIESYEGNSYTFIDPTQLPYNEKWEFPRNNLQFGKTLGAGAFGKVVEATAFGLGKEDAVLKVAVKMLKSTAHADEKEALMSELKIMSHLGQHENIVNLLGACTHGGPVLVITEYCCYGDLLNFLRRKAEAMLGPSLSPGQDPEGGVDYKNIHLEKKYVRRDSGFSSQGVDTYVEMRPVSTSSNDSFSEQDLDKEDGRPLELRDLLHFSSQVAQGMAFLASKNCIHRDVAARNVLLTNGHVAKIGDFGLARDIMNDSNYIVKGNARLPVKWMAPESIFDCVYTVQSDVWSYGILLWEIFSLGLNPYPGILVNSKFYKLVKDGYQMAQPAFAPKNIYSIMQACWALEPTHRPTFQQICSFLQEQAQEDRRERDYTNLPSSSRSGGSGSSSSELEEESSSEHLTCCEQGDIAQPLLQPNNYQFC
Metric: inhibition at 0.1 µM (%)

Take a look at these entries with their results.
* COc1cc2nccc(Oc3ccc(NC(=O)c4nn(CC(C)N)cc4OCC(F)(F)F)nc3)c2cc1OC (stereo not drawn) | 96
* COc1cc2nccc(Oc3ccc(NC(=O)c4nn(CC5COC5)cc4OCC(F)(F)F)cc3C)c2cc1OC | 94
* COc1cc2nccc(Oc3ccc(NC(=O)c4nn(C5CCNC5)cc4OCC(F)(F)F)cc3C)c2cc1OC (stereo not drawn) | 46
* COc1cc2nccc(Oc3ccc(NC(=O)c4nn(CC(C)C)cc4OCC(F)(F)F)nc3)c2cc1OC | 95
* COc1cc2nccc(Oc3ccc(NC(=O)c4nn(CC(C)O)cc4OCC(F)(F)F)cc3F)c2cc1OC (stereo not drawn) | 64

P: COc1cc2nccc(Oc3ccc(NC(=O)c4nn(C5CC5)cc4OCC4COC4)nc3)c2cc1OC
Q: COc1cc2nccc(Oc3ccc(NC(=O)c4nn(CCO)cc4OCC(F)(F)F)cc3C)c2cc1OC
R: COc1cc2nccc(Oc3ccc(NC(=O)c4nn(CCN)cc4OCC(F)(F)F)cc3F)c2cc1OC
S: COCCn1cc(OCC(F)(F)F)c(C(=O)Nc2ccc(Oc3ccnc4cc(OC)c(OC)cc34)nc2)n1
Q: Sort the molecules on inhibition at 0.1 µM; start with the lowest figure. Present the labels in the sequence the task asks for.
Result: Q, R, S, P
(Q: 0%, R: 12%, S: 46%, P: 95%)

a: COc1cc2nccc(Oc3ccc(NC(=O)c4nn(C5CC5)cc4OCCF)nc3)c2cc1OC
b: CNCCn1cc(OCC(F)(F)F)c(C(=O)Nc2ccc(Oc3ccnc4cc(OC)c(OC)cc34)c(C)c2)n1
Q: Between a and b , which one shows the smaller inhibition at 0.1 µM number? Record your answer as the label of the chosen record.
Result: b

----------
The molecules listed here are annotated with their inhibition at 0.1 µM.
molecular target: CSF1R (Homo sapiens); assay: KINOMEscan competition binding assay for CSF1R; set-up: DNA tag for qPCR (not a peptide); host or cells: E. coli/T7 phage or HEK-293; conditions: @ 0.1 uM; read-out: CSF1R kinase binding activity, Range

- CCCn1cc(NCCC(F)(F)F)c(C(=O)Nc2ccc(Oc3ccnc4cc(OC)c(OC)cc34)cn2)n1 [Compound 158]: ≥ 80%
- COc1cc2nccc(Oc3ccc(NC(=O)c4nn(CC5COC5)cc4OCC(F)(F)F)nn3)c2cc1OC [Compound 123]: 50 to 80%
- CCCn1cc(OCCN(C)C)c(C(=O)Nc2ccc(Oc3ccnc4cc(OC)c(OC)cc34)c(F)c2)n1 [Compound 165]: < 50%

Let us move to another entry and its inhibition at 0.1 µM.
Q: So what does the record say about inhibition at 0.1 µM for COc1cc2nccc(Oc3ccc(NC(=O)c4nn(CC5COC5)cc4OCC(F)(F)F)cc3C)c2cc1OC [Compound 99] ?
Result: ≥ 80%

----------
The following compounds are listed with their measured pKd values.
target: Mer (Homo sapiens, UniProt Q12866); construct: purchased Life Technologies; experiment: LanthaScreen Eu kinase binding assay for Mer; conditions: read-out: Mer kinase binding activity (Kd)
Sequence (Q12866 21-999): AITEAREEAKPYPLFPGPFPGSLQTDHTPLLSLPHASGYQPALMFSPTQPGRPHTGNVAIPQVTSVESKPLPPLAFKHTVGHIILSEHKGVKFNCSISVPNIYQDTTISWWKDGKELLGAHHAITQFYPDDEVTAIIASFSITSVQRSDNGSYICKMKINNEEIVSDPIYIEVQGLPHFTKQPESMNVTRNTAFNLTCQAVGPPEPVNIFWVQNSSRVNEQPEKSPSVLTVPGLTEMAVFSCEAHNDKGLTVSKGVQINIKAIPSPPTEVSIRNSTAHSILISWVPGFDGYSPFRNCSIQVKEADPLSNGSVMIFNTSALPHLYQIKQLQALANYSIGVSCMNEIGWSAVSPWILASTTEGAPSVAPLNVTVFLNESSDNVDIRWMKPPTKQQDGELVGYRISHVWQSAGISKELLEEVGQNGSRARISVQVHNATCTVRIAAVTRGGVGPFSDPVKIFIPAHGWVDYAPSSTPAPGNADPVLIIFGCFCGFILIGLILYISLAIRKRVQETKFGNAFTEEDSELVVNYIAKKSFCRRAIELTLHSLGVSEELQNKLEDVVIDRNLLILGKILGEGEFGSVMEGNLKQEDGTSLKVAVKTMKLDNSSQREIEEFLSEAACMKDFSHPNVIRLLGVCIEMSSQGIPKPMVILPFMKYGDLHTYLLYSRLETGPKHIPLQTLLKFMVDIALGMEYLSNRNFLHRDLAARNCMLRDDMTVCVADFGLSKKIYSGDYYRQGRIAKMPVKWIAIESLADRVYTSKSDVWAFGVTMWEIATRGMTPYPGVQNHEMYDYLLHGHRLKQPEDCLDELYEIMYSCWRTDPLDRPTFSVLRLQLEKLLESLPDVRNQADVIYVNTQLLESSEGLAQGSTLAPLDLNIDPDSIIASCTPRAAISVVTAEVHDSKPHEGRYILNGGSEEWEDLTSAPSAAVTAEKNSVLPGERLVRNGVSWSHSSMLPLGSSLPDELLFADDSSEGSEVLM
pKd: −log10 of the molar value.

Answered cases to consult:
* CNCCn1cc(OCC(F)(F)F)c(C(=O)Nc2ccc(Oc3ccnc4cc(OC)c(OC)cc34)nc2)n1 | ≤ 6.30
* CCC(=O)n1cc(OCC(F)(F)F)c(C(=O)Nc2ccc(Oc3ccnc4cc(OC)c(OC)cc34)cn2)n1 | > 7.00
* COc1cc2nccc(Oc3ccc(NC(=O)c4nn(C5CCCC5)cc4OCC(F)(F)F)cc3)c2cc1OC | > 7.00
* COc1cc2nccc(Oc3ccc(NC(=O)c4nn(C5CC5)cc4OCCC(F)(F)F)nn3)c2cc1OC | > 7.00

Q: Fill in the blank: the reported pKd of COc1cc2nccc(Oc3ccc(NC(=O)c4nn(CC5CCCC5)cc4OCC(F)(F)F)nc3)c2cc1OC is ____.
Result: > 7.00

Q: What do you get for CCCn1cc(OCC2CNC2)c(C(=O)Nc2ccc(Oc3ccnc4cc(OC)c(OC)cc34)cn2)n1 ?
Result: ≤ 6.30

Q: Then COc1cc2nccc(Oc3ccc(NC(=O)c4cc(C5CC5)cnc4OCC(F)(F)F)nc3)c2cc1OC ?
Result: > 7.00

Q: Now this one: CNCCn1cc(OCC(F)(F)F)c(C(=O)Nc2ccc(Oc3ccnc4cc(OC)c(OC)cc34)c(F)c2)n1
Result: 6.30 to 7.00

Q: Then what about the compound COc1cc2nccc(Oc3ccc(NC(=O)c4nn(C5CC5)cc4OCCF)nc3)c2cc1OC ?
Result: > 7.00

Q: # iterate: COc1cc2nccc(Oc3ccc(NC(=O)c4nn(C5CCOC5)cc4OCC(F)(F)F)cc3)c2cc1OC (stereo not drawn)
Result: > 7.00

Q: Field entry: CCCn1cc(OCC(F)(F)F)c(C(=O)Nc2ccc(Oc3ccnc4cc(OC)c(OC)cc34)cc2)n1
Result: > 7.00

Q: What would you report for COc1cc2nccc(Oc3ccc(NC(=O)c4nn(CC(C)C)cc4OCC(F)(F)F)cc3F)c2cc1OC ?
Result: > 7.00

Q: Same again, this time with CCCn1cc(OCCC(F)(F)F)c(C(=O)Nc2ccc(Oc3ccnc4cc(OC)c(OC)cc34)cn2)n1
Result: > 7.00

Q: Same question for COc1cc2nccc(Oc3ccc(NC(=O)c4nn(CC5COC5)cc4OCC(F)(F)F)cn3)c2cc1OC please.
Result: > 7.00

Q: What do we get for COc1cc2nccc(Oc3ccc(NC(=O)c4nn(CC5COC5)cc4OCC(F)(F)F)cc3F)c2cc1OC ?
Result: > 7.00

Q: Now the compound COc1cc2nccc(Oc3ccc(NC(=O)c4nn(CC(C)O)cc4OCC(F)(F)F)cc3)c2cc1OC (stereo not drawn)
Result: > 7.00

Q: Request: CCCn1cc(OCCC(O)CO)c(C(=O)Nc2ccc(Oc3ccnc4cc(OC)c(OC)cc34)cn2)n1 (stereo not drawn)
Result: > 7.00

Q: Field entry: COCCn1cc(OCC(F)(F)F)c(C(=O)Nc2ccc(Oc3ccnc4cc(OC)c(OC)cc34)cn2)n1
Result: > 7.00

Q: And then CCCn1cc(OCC(F)(F)F)c(C(=O)Nc2ccc(Oc3ccnc4cc(OC)c(OC)cc34)cc2C)n1 , what is it?
Result: > 7.00

Q: Queued: COc1cc2nccc(Oc3ccc(NC(=O)c4nn(C5CCNC5)cc4OCC(F)(F)F)nc3)c2cc1OC (stereo not drawn)
Result: > 7.00

Q: Do the same for COc1cc2nccc(Oc3ccc(NC(=O)c4nn(CC5CCNC5)cc4OCC(F)(F)F)nc3)c2cc1OC (stereo not drawn) please
Result: > 7.00

Q: Please give the result for COc1cc2nccc(Oc3ccc(NC(=O)c4nn(CCN)cc4OCC(F)(F)F)c(F)c3)c2cc1OC too.
Result: 6.30 to 7.00

Q: Here is the next compound: CCn1cc(OC(C)C)c(C(=O)Nc2ccc(Oc3ccnc4cc(OC)c(OC)cc34)cn2)n1
Result: > 7.00

Q: Now give it for COc1cc2nccc(Oc3ccc(NC(=O)c4nn(CC(C)=O)cc4OCC(F)(F)F)nc3)c2cc1OC too.
Result: > 7.00

Q: Another compound to check: CNCCOc1cn(C2CC2)nc1C(=O)Nc1ccc(Oc2ccnc3cc(OC)c(OC)cc23)nn1
Result: ≤ 6.30

Q: Also COc1cc2nccc(Oc3ccc(NC(=O)c4nn(C5CC5)cc4OCC4CNC4)nc3)c2cc1OC ?
Result: 6.30 to 7.00

Q: What about this compound? COc1cc2nccc(Oc3ccc(NC(=O)c4nn(C5CCCCC5)cc4OCC(F)(F)F)nc3)c2cc1OC
Result: > 7.00
